Experiment: yeast display, Sf9 membrane polyspecificity reagent, FACS + sequencing; frameworks hold sequencing errors

Monomer sequence	polyreactivity (PSR sort gate)
QVQLVESGGGLVQAGGSLRLSCAASGITLARNAMGWYRQAPGKERELVASITWSGGTTYYADSVKGRFTISRDNAKNTVYLQMISLKPEDTAVYYCAASAKLHYYRTYRYNYWGQGTQVSVSS	high polyreactivity
QVQLVESGGGLVQAGGSLRLSCAASGFIFSSYAMGWYRQAPGKERELVAAITSRGGSTYYADSVKGRFTISRDNAKNTVYLQMNSLKPEDTAVYYCNAVVTKYAKSRFLYYYWGQGTQVTVSS	high polyreactivity
QVQLVESGGGLVQAGGSLRLSCAASGRIFVIYAKGWYRQAPGKERELVAVISSDGSTYYADSVKGRFTISRDNAKNTVYLQMNSLKPEDTAVYYCAADRIGRYRPYIGWVVRSYYWGQGTQVTVSS	low polyreactivity
QVQLVESGGGLVKAGGSLRLSCAASGSTFVGYAMGWYRQAPGKERELVADITWSGTNTYYADSVKGRFTISRDNAKNTVYLQMNSLKPEDTAVYYCAADIARSVRFYYWGQGTQVTVSS	low polyreactivity
QVQLVESGGGLVQAGGSLRLSCAASGRIFSVYGMGWYRQAPGKERELVAAMSSSAGSTNYADSVKGRFTISRDNAKNTVYLQMISLKPEDTAVYYCAAYYRRVVYYPTAYYIRKYDYWGQGSQVTVSS	high polyreactivity
QVQLVETCGGLDQAGVSLRLSCAASGIIFKTYAMGWYRQAPGKETEYVAPISVSGGGTYYADSVKGRFTISRDNAKNTVYLQMNSPKPEDTAVYYCAARSWYWRYYTLNPYDYWVQGTQVTVSS	high polyreactivity
QVQLVESGGGLVQAGGSLRLSCAASGFILYRNAMGWYRQAPGKERELVAAISRNGGSTYYADSVKGRFTISRDNAKNTFYLQMNSLKPEDTAVYYCAARTVGRKAGFDYWGQGTQVTVSS	high polyreactivity
QVLLVETGGGLVQAGGSLRLSCAASGLIFYDNMGWYRQAPGKERELVAAISSSGGSTSYADSVKGRFTISRDNAKNTVYLQMNSLKPEDTAVYYCAADSYPAYLGFVGFDYWGQGTQVTVSS	low polyreactivity

----------
Assay: yeast display, Sf9 membrane polyspecificity reagent, FACS + sequencing; frameworks hold sequencing errors
Readout: polyreactivity (PSR sort gate)

Monomer sequence	Recorded result
QVQLVESGGGLVQAGGSLRLSCAASGRTFGYYAMGWYRQAPGKERELVAAISSRSSTTYYADSVKGRFTISRDNAKNTVYLQMNSLKTEDNAVYYCNVAYGEWKTFDYWGQGTQVTVSS	high polyreactivity
QVQLVESGGGLVQAGGSLRLSCAASGSIIKPYAMGWYRQAPGKERELVAAIRSSGGRTNYADSVKGRFTISRDNAKNTVYLQMNSLKPEDTAVYYCAKRYYGRKYYYWGQGTHVTVSS	high polyreactivity
QVQLVESAGGLVQAGGSLSLSCAASGSMFNKYAMGWYRQAPGKERELVAAISVSGTRTYYADSVKGRFTISRDNAKNTVYLQMNSLKPEDTAVYYCATKFFRTAYEYWGQGTQVTVSS	high polyreactivity
QVQLVESGGGLVQAGGSLRLSCAASGFTFAGNARGWDRQSPGKERELVAAITSGGSTYYADSVKGRFTMSRDKAKNTVYLQMNSLKPEDTAVYYCAALVFRGRSFTHDYWGQGTQVTVSS	high polyreactivity
QVQLVESGGGLVQAGGSLRLSCAASGIILSAYAMGWYRQAPGKERELVARISRSGGRTYYADSVKGRFTISRDNAKNTVYLQMNSLKPEDTAVYYCAADYTYGFGLYFGYGYWRQGTQVTVSS	high polyreactivity
QVQLVESGGGLVQAGGSLRLSCAASGGIFDTYVMGWYRQAPGKETELVAAISSSGSTTYADSVKGRFTISRDNAKNTVYLQMNSLKPEDTAVYYCNADYSTIWRYDYWGQGTQVTVSS	low polyreactivity
QDQLVESGGGLVQAGGSLRLSCAASGYTFRYAMGWNIQAPGKERELVAGITSSGGSTYYADSVKGRFTISRDNAKNTVYLQMNSLKPEDTAVYYCNADFFVWLYPHYLIFDYWGQGTQVTVSS	low polyreactivity
QVQLVESGGGLVQAGGSLRLSCAASGSIFVSNAMGWYRQAPGKERELVAAISYSTSRTYYADSVKGRFTISRDNAKNTVYLQMNSLKPEDTAVYYCAVRVRVADGRSNYWGQGTQVTVSS	high polyreactivity
QVQLVESVGGLVQAGGSLRLSCAASGLMFWYYTMGWYRQAPGKERELVAAIRSGGSTNYADSVKGRFTISRDNAKNTVYLQMNSLKPEDTAVYYCAARKWHSAYDYWGQGTQVTVSS	high polyreactivity
QVQLVESGGGLVQAGGSLRLSCAASGLIFDINAMGWYRQAPGKERELVAAITWRGGSTYYADSVKGRFTISRDNAKNTVYLQMNSLKPEDTAVYYCAAGWSYRNGVGVGDFYYGYDYWGQGTQVTVSS	high polyreactivity
QVQLVESGGGLVQAGGSLRLRCAASGSSFIWNAMGWYRQAPGKERELVAAISSGGSTYYADSVKGRFTISRDNAKNTVDLQMNSQKPPDTAVYYCAAEYVNNVWEQSYAVYSTDDYWGQGTQVTVSS	low polyreactivity
QVQLVESGGGLVQAGGSLRLSCAASGRIFYENAMGWYRQAPGKDRELVAAISGSGGSTYYADSVKGRFTISRDNAKNTVYLQMNSLKPEDTAVYYCNAYRRVPGYDYWGQGTQVTVSS	high polyreactivity
QVQLVESGGGLVQAGGSLRLSCAASGYTFRFNAMGWYRQAPGKERELVARISKSGGSTYYADSVKGRFTISRDNAKNTVYLQMNSLKPEDTAVYYCAAKDYVWGQGTQVTVSS	low polyreactivity
